assayExplanation: Pharmacokinetic study in plasma of acute depressive rats after oral ZQ extract (LC-MS/MS)
Type: in vivo, Sprague–Dawley rats
measurementParameters: Sprague-Dawley, rat; plasma, male SD rats subjected to FST, oral ZQ extract 20 g/kg, mean ± SD, n = 6
assayEndpoint: AUC(0-t) (ng·h/mL)
Only the number, expressed in ng·h/mL, is required.

compound	assayResult
COc1ccc2ccc(=O)oc2c1CC(O)C(C)(C)O (stereo not shown) [Meranzin hydrate]	1480
COc1ccc(-c2cc(=O)c3c(OC)c(OC)c(OC)c(OC)c3o2)cc1OC	151
COc1ccc([C@@H]2CC(=O)c3c(O)cc(O[C@@H]4O[C@H](CO[C@@H]5O[C@@H](C)[C@H](O)[C@@H](O)[C@H]5O)[C@@H](O)[C@H](O)[C@H]4O)cc3O2)cc1O	136
C[C@@H]1O[C@@H](O[C@H]2[C@H](Oc3cc(O)c4c(c3)O[C@H](c3ccc(O)cc3)CC4=O)O[C@H](CO)[C@@H](O)[C@@H]2O)[C@H](O)[C@H](O)[C@H]1O	293
C[C@@H]1O[C@@H](OC[C@H]2O[C@@H](Oc3cc(O)c4c(c3)O[C@H](c3ccc(O)cc3)CC4=O)[C@H](O)[C@@H](O)[C@@H]2O)[C@H](O)[C@H](O)[C@H]1O	42.6
O=C1C[C@@H](c2ccc(O)cc2)Oc2cc(O)cc(O)c21	188

Would you kindly look at the next entry?
Note to self: AUC(0-t) recorded for COc1ccc([C@@H]2CC(=O)c3c(O)cc(O[C@@H]4O[C@H](CO)[C@@H](O)[C@H](O)[C@H]4O[C@@H]4O[C@@H](C)[C@H](O)[C@@H](O)[C@H]4O)cc3O2)cc1O was 234

----------
The reader will find reported Tmax values listed item by item below.
assayExplanation: Pharmacokinetic study in plasma of acute depressive rats after oral ZQ extract (LC-MS/MS)
Type: in vivo, Sprague–Dawley rats
measurementParameters: Sprague-Dawley, rat; plasma, male SD rats subjected to FST, oral ZQ extract 20 g/kg, mean ± SD, n = 6
Only the number, expressed in min, is required.

For orientation, consider the following solved cases.
compound	Tmax / min
C[C@@H]1O[C@@H](O[C@H]2[C@H](Oc3cc(O)c4c(c3)O[C@H](c3ccc(O)cc3)CC4=O)O[C@H](CO)[C@@H](O)[C@@H]2O)[C@H](O)[C@H](O)[C@H]1O	25.2
COc1ccc(-c2cc(=O)c3c(OC)c(OC)c(OC)c(OC)c3o2)cc1OC	22.8
O=C1C[C@@H](c2ccc(O)cc2)Oc2cc(O)cc(O)c21	25.2
COc1ccc([C@@H]2CC(=O)c3c(O)cc(O[C@@H]4O[C@H](CO)[C@@H](O)[C@H](O)[C@H]4O[C@@H]4O[C@@H](C)[C@H](O)[C@@H](O)[C@H]4O)cc3O2)cc1O	17.4
C[C@@H]1O[C@@H](OC[C@H]2O[C@@H](Oc3cc(O)c4c(c3)O[C@H](c3ccc(O)cc3)CC4=O)[C@H](O)[C@@H](O)[C@@H]2O)[C@H](O)[C@H](O)[C@H]1O	19.8
COc1ccc2ccc(=O)oc2c1CC(O)C(C)(C)O (stereo not shown) [Meranzin hydrate]	75

Would you kindly look at the next entry?
Note to self: Tmax recorded for COc1ccc([C@@H]2CC(=O)c3c(O)cc(O[C@@H]4O[C@H](CO[C@@H]5O[C@@H](C)[C@H](O)[C@@H](O)[C@H]5O)[C@@H](O)[C@H](O)[C@H]4O)cc3O2)cc1O was 25.2

Each recorded value in this set is attributed to paper PMC5845165.
